Sourced from paper PMC3355305

- assayed.target: G14V (Caulobacter vibrioides, UniProt Q9A6C9, G14V)
- Construct: gene mipZ; hexahistidine-tagged, full length, overproduced in E. coli Rosetta2(DE3)pLysS; constitutively monomeric
- Sequence (Q9A6C9 1-278 G14V): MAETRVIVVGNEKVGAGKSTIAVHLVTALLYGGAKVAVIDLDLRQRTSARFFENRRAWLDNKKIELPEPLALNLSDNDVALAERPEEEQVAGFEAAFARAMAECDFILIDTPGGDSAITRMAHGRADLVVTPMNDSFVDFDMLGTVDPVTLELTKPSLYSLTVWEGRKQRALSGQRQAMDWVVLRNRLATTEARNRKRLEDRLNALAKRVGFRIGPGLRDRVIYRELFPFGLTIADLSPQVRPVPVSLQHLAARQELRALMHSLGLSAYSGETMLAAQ
- measurement.description: Stopped-flow FRET transient kinetics of mant-ATP binding to MipZ (excitation 297 nm, 360 nm cut-off) at 30 °C in 50 mM Hepes/NaOH pH 7.2, 50 mM KCl, 10 mM MgCl2, 1 mM β-mercaptoethanol; KD calculated as koff/kon, with koff from displacement by excess unlabeled nucleotide.
reported.endpoint: Kd (µM)
One number for each entry, in µM.

(Q) State its Kd: CNc1ccccc1C(=O)O[C@H]1[C@@H](O)[C@H](n2cnc3c(N)ncnc32)O[C@@H]1CO[P@@](=O)(O)O[P@](=O)(O)OP(=O)(O)O
(A) 1.3

###

- assayed.target: K18Q (Caulobacter vibrioides, UniProt Q9A6C9, K18Q)
- Construct: gene mipZ; hexahistidine-tagged, full length, overproduced in E. coli Rosetta2(DE3)pLysS; constitutively monomeric
- Sequence (Q9A6C9 1-278 K18Q): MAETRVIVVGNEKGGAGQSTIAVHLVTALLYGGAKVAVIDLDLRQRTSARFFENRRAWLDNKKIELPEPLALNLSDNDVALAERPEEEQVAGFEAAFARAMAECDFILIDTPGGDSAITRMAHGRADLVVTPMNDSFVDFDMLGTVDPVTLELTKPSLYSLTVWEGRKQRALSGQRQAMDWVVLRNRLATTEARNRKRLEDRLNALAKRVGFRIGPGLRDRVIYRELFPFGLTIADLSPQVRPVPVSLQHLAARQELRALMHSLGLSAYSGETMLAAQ
- measurement.description: Stopped-flow FRET transient kinetics of mant-ATP binding to MipZ (excitation 297 nm, 360 nm cut-off) at 30 °C in 50 mM Hepes/NaOH pH 7.2, 50 mM KCl, 10 mM MgCl2, 1 mM β-mercaptoethanol; KD calculated as koff/kon, with koff from displacement by excess unlabeled nucleotide.
reported.endpoint: Kd (µM)
One number for each entry, in µM.

(Q) For the compound CNc1ccccc1C(=O)O[C@H]1[C@@H](O)[C@H](n2cnc3c(N)ncnc32)O[C@@H]1CO[P@@](=O)(O)O[P@](=O)(O)OP(=O)(O)O , report Kd.
(A) 121

###

- assayed.target: MipZ-K18Q
- measurement.description: Transient kinetic analysis of mant nucleotide binding to MipZ K18Q
- Parameters: species or system Caulobacter crescentus
- condition.context: calculated KD = koff/kon
reported.endpoint: pKd
Answers are plain numbers, as −log10 of the molar value.

(Q) Using the record for CNc1ccccc1C(=O)O[C@H]1[C@@H](O)[C@H](n2cnc3c(N)ncnc32)O[C@@H]1CO[P@@](=O)(O)O[P@](=O)(O)OP(=O)(O)O , state its measured pKd.
(A) 3.92

###

Give measured pKd for each item. Keep answers brief.
- assayed.target: MipZ G14V
- measurement.description: Transient kinetic analysis of mant nucleotide binding to MipZ G14V
- condition.context: calculated KD = koff/kon
Answers are plain numbers, as −log10 of the molar value.

chem.smiles: CNc1ccccc1C(=O)O[C@H]1[C@@H](O)[C@H](n2cnc3c(N)ncnc32)O[C@@H]1COP(=O)(O)OP(=O)(O)O
assayed.target: MipZ G14V
pKd: 5.35

Continue with the next molecule.
(Q) Output measured pKd for this item: CNc1ccccc1C(=O)O[C@H]1[C@@H](O)[C@H](n2cnc3c(N)ncnc32)O[C@@H]1CO[P@@](=O)(O)O[P@](=O)(O)OP(=O)(O)O
(A) 5.89

###

- assayed.target: MipZ-D42A
- measurement.description: Transient kinetic analysis of mant nucleotide binding to MipZ D42A
- condition.context: calculated KD = koff/kon
reported.endpoint: pKd
One number for each entry, as −log10 of the molar value.

chem.smiles: CNc1ccccc1C(=O)O[C@H]1[C@@H](O)[C@H](n2cnc3c(N)ncnc32)O[C@@H]1COP(=O)(O)OP(=O)(O)O
assayed.target: MipZ-D42A
pKd: 4.16

(Q) Answer with the recorded pKd of CNc1ccccc1C(=O)O[C@H]1[C@@H](O)[C@H](n2cnc3c(N)ncnc32)O[C@@H]1CO[P@@](=O)(O)O[P@](=O)(O)OP(=O)(O)O only.
(A) 4.24
